- TESTED_SYSTEM: Rac GTPase-activating protein 1 (Homo sapiens)
- TEST_NAME: blockers of MgcRacGAP-driven Rac1 GTP hydrolysis – biochemical, ADP Hunter fluorescence, primary and confirmatory, confirmation (AID 624330);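 note: fluorescence reports GDP produced by GAP-driven GTP hydrolysis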
- MEASUREMENT_PARAMETERS: MgcRacGAP-stimulated Rac1 GTP hydrolysis, at 30 µM, hits give high values, GST-tagged Rac1 F28L mutant substrate
In all, about 340,000 compounds went through this assay and about 2,100 (0.62%) were called active. These entries were drawn from the full list. Results with a measured potency or affinity are listed apart.
Measured inhibition values are reported for all entries that follow.
Report the figure in % without appending any unit label.

The following compounds have reported results that may help.
Nc1cc(C(=O)O)ccc1Nc1ccccc1    25.7
O=C(CSc1nnc(COc2ccccc2)n1-c1ccccc1)c1cccs1    15.1
Cc1ccccc1NC(=O)COC(=O)c1cccc(S(=O)(=O)N2CCCCC2)c1    0.63
COc1cccc(C2C(C(=O)c3cccs3)=C(O)C(=O)N2CCN2CCOCC2)c1OC (configuration not stated)    10.9
O=C(O)[C@H](CSCc1ccccc1)NS(=O)(=O)c1ccc(F)cc1    9.02
CC(C)Oc1ccc(C2NC(=O)c3ccccc3O2)cc1 (configuration not stated)    4.5
O=C(COC(=O)C1CC(=O)N(c2ccc3c(c2)OCCO3)C1)Nc1ccc2c(c1)CCC2 (configuration not stated)    8.9
CN(C)C(=O)CCc1ccc2c3c([nH]c2c1)[C@]1(C)[C@@H](C(=O)N2CCOCC2)C[C@H](CC(=O)NCc2cccc(C(F)(F)F)c2)C(=O)N1CC3    -2.92

Request: // returns reported inhibition for input `O=C(c1noc2c1CCCCC2)N1CCOCC1`
Result: 1.03

Request: Please give the measured inhibition for this compound: `Cc1cc(=O)oc2cc(NC(=O)c3ccccc3Cl)ccc12`
Result: 9.35

Request: inhibition for `NC(=O)C[C@H](NC(=O)c1ccc(Cl)cc1)C(=O)OCc1ccccc1` ?
Result: 8.75

Request: Recorded inhibition for `CCCCCC(=O)Nc1ccc(N2CCOCC2)c(S(=O)(=O)Nc2ccc(OC)cc2)c1` , please?
Result: 10.2

Request: Please give the measured inhibition for this compound: `CC(=O)Nc1ccc(S(=O)(=O)Nc2nc3ccccc3nc2Nc2ccccc2)cc1`
Result: 4.86

Request: Quick one: inhibition for Cc1nonc1CN(C)C(=O)CC1C(=O)NCCN1Cc1ccccc1F (configuration not stated) ?
Result: 2.81

Request: Given COC(=O)c1cc(C(=O)OCC(=O)N(C)C2CCS(=O)(=O)C2)cc([N+](=O)[O-])c1 (configuration not stated) , state its recorded inhibition.
Result: -3.52

Request: Using the record for `CC(=O)Nc1ccc(S(=O)(=O)Nc2nc3ccccc3nc2Nc2ccc(O)c(C(=O)O)c2)cc1` , report its inhibition.
Result: 9.87

Request: Reported inhibition for `CCCn1c2ccccc2c2cnn(CC(=O)N3CCN(C4CCCCC4)CC3)c(=O)c21` : what is it?
Result: 10.4

----------
- TESTED_SYSTEM: Rac GTPase-activating protein 1 (Homo sapiens)
- TEST_NAME: blockers of MgcRacGAP-driven Rac1 GTP hydrolysis – biochemical, ADP Hunter fluorescence, primary and confirmatory, confirmation (AID 624330);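 note: fluorescence reports GDP produced by GAP-driven GTP hydrolysis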
- MEASUREMENT_PARAMETERS: MgcRacGAP-stimulated Rac1 GTP hydrolysis, at 30 µM, hits give high values, GST-tagged Rac1 F28L mutant substrate
About 2,100 (0.62%) of roughly 340,000 compounds were called active. The list is a sample of the results. Results with a measured potency or affinity are listed apart.
# inhibition annotations
Report the value in % with no unit label.

# example entries with known answers
CCOc1ccccc1OCCN1CCC(Cc2ccccc2)CC1    11.1
COc1ccc2c(c1)S(=O)(=O)c1ccccc1N2    11.9
CCN(c1ccccc1)S(=O)(=O)c1ccc(N2CCN(c3ccc(OC)cc3)CC2)nc1    4.13
O=C(Nc1ccccc1)c1cccc(NC(=O)c2ccco2)c1    11.5
CCN1CCN(Cc2ccc(OCc3ccccc3)c(OC)c2)CC1    14.4
c1ccc2c(c1)Nc1nccnc1S2    28.4
CCC(=O)c1ccccc1OCCCN1CCC(Cc2ccccc2)CC1    16.5
CC1CC(C)CN(CCOc2cccc(Cl)c2Cl)C1 (configuration not stated)    18.8

Request: Tell me the measured inhibition of `COc1ccc(N=CC2=C(O)CCCC2=O)cc1` , please.
Result: 13.3

Request: Item `CC1(C)CC(=O)C(C=Nc2ccccc2)=C(O)C1` has what recorded inhibition?
Result: 2.7

Request: Look up inhibition: `CN(C)S(=O)(=O)c1ccc(C(=O)Nc2cccc(C(=O)O)c2)cc1`
Result: -1.04

Request: Item `O=C1CCCC(O)=C1C=Nc1cccc(C(F)(F)F)c1` has what recorded inhibition?
Result: 11.5
